# protein stability index annotations
B1: OAS1 (parent)
chain: YIGTHEYPHFSHRPSTLQAASTPQ

# Variants of: B1
# ASSAY OVERVIEW: protein stability index of a GFP-peptide fusion (GPS, HEK-293T) (PSI 1-6); higher = more stable;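 also: lentivirally expressed fusions sorted by FACS into six bins by GFP to DsRed ratio, PSI derived from sequencing read proportions per bin multiplied by bin number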
# EXPERIMENTAL CONDITIONS: c terminus: a fixed tail appended

- MUTATION NOTATION: "I2S"
  protein stability index: 2.49
- MUTATION NOTATION: "L17H"
  protein stability index: 1.93
- MUTATION NOTATION: "S11I"
  protein stability index: 2.71
- MUTATION NOTATION: "P8E"
  protein stability index: 2.79
- MUTATION NOTATION: "R13H"
  protein stability index: 2.29
- MUTATION NOTATION: "I2P"
  protein stability index: 2.47
- MUTATION NOTATION: "P14Y"
  protein stability index: 2.09
- MUTATION NOTATION: "S15T"
  protein stability index: 1.94
- MUTATION NOTATION: "T16D"
  protein stability index: 2.13
- MUTATION NOTATION: "E6Y"
  protein stability index: 1.89
- MUTATION NOTATION: "P23Q"
  protein stability index: 2.23
- MUTATION NOTATION: "S15I"
  protein stability index: 1.85
- MUTATION NOTATION: "H9S"
  protein stability index: 2.09
- MUTATION NOTATION: "H5F"
  protein stability index: 2.28
- MUTATION NOTATION: "H5G"
  protein stability index: 2.09

Source listed as the supplement of paper PMC10567573.
